Target: T1, human IL-17A (human, UniProt Q16552 24-155, biotinylated with Sulfo-NHS-LC-Biotin in the AlphaScreen assays only)
T1 construct: also called hIL-17A; recombinant human IL-17A
T1 sequence (Q16552 other isoform, or with tags, fused parts or gaps): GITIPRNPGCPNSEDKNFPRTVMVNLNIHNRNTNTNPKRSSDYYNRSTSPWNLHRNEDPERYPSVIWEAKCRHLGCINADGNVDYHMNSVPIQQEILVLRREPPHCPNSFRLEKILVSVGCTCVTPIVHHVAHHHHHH
Experiment: AlphaScreen competition, hIL-17A - IL-17RA-Fc;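 also: receptor Fc-fusion plus Acceptor and streptavidin Donor beads incubated with the mixture for 1 h at room temperature before reading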
Can you tell me pIC50 for the items I'm about to list?
One number for each entry, as −log10 of the molar value.

01G03 (VHH, Class 1 Nanobody (anti-IL-17A); not shown: c-myc, His6 tag) VHH: EVQLVESGGGLVQAGGSLRLSCAASERTISNYDMGWFRQAPGKERELIAADISWSALNTNYADSVKGRFTISRDNAKNMVYLQMNNLKPEDTAVYYCAARRSGYASFDNWGQGTQVTVSS: 9.49
11A06 (VHH, Class 2 Nanobody (anti-IL-17A and IL-17A/F); not shown: c-myc, His6 tag) VHH: EVQLVESGGGLVQPGESLRLSCKASGFSLDYYALGWFRQAPGKEREGISCITSSDASAYYTDSVKGRFTISRDNSKNTVYLQMNSLKTEDTAIYYCAAALLTCSSYYDAYTYWGQGTQVTVSS: 10.09
04A02 (VHH, Class 2 Nanobody (anti-IL-17A and IL-17A/F); not shown: c-myc, His6 tag) VHH: EVQLVESGGGLVQPGGSLRLSCAASRNINIINYMAWYRQAPGNQRELVAAMTSDATTEYADSVKGRFTISRDIPENTVYLQMNSLKPEDTAVYYCNAKGIWDYLGRRDFGDYWGQGTQVTVSS: 9.40

Proceeding to the next binder to report its pIC50.
Please give measured pIC50 of the following entry: 04G01 (VHH, Class 2 Nanobody (anti-IL-17A and IL-17A/F); also called IL17MS04G01; not shown: c-myc, His6 tag) VHH: EVQLVESGGGLVQAGGSQRLSCTASGTIVNIHVMGWYRQAPGKQRELVALIFSGGSADYADSVKGRFTISRDNAKNTVYLEMNSLKAEDTAVYYCAAEIGYYSGGTYYSSEAHWGQGTQVTVSS
10.85
